Attribution: the RNAGym collection of RNA variant scans (doi:10.1126/science.aae0568)

B1: tRNA (parent)
chain: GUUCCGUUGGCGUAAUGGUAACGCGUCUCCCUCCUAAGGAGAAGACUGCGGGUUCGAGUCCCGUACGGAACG

# Variants of: B1
# protocol_notes: yeast fitness relative to wild type (ratio to wild type); higher = fitter; tRNA-Arg(CCU), competitive growth, 37 C, YPD
Variants at the floor of the assay were thinned out.
endpoint_name: yeast fitness

| chain_sequence | yeast fitness |
| --- | --- |
| GUUCCGUUGGCGUACUGGUAACGCGUCACCCUCGUAAGGAGAUGACUGCGGGUUCGAGUCCCGUACGCAACG [A15C U28A C34G A43U G68C] | ≤ 0.5 |

Give yeast fitness for each of the items listed below.
1. GUUCCGUUGGCGUAAUGGUAACGCGUCUCCCUACUAACGAGAAGACUGCAGGUUCGAGUCCCGCACGGAACG [C33A G38C G50A U64C]
2. GUUCCGAUGGCGUAAUGGUAACGCGUCUCCCUCCUAAGGAGAAGACUGCGGGUUCGAGUCCGGUACGGAACG [U7A C62G]
3. GUUCCGUUGGCGUAUUGGUAACGCGUCGCCCUUCUAAGGAGAAGACUGCGGGUUCGAGUCCCGUACGGAACG [A15U U28G C33U]
4. GUUCCGUUGGCGUAAUGGUAACGCGCCUCCCUCCUAAGGGGAAGACUGCGGGUUCGAGUCCCGUAUGGAACG [U26C A40G C66U]

≤ 0.5
0.63
≤ 0.5
0.563
